Origin of values: ChEMBL document CHEMBL1921724

- System: SK-MEL-28
- PROTOCOL DESCRIPTION: Growth inhibition of pro-apoptotic stimuli-resistant human SK-MEL-28 cells after 72 hrs by MTT assay
- Type: functional
- CONDITION CONTEXT: SK-MEL-28, 72 h
Lab note - cut at 20 µM for GI50: condition met if strictly below, condition not met if not.

SMILES INPUT	CATEGORY
CCCCCCCCCCCCCCCC(=O)O[C@H]1[C@H]2c3cc4c(cc3CN3CCC(=C[C@@H]1O)[C@H]23)OCO4	condition not met
O=C(O[C@H]1C=C2CCN3Cc4cc5c(cc4[C@H]([C@@H]1O)[C@@H]23)OCO5)c1ccccc1	condition not met

Decide: GI50 of `O=C1c2cc3c(cc2[C@@H]2[C@H](O)[C@@H](O)C=C4CCN1[C@H]42)OCO3` strictly below 20 µM? condition not met

Please state whether GI50 is below 20 µM for `CC(=O)O[C@@H]1[C@@H](OC(C)=O)[C@H](OC(C)=O)[C@@]2(O)CCN3C(=O)c4cc5c(cc4[C@H]1[C@H]32)OCO5` condition not met

Field: below-cutoff. Rule: recorded GI50 strictly less than 20 µM. Subject: `CC(=O)O[C@H]1[C@H]2c3cc4c(cc3CN3CCC(=C[C@@H]1O)[C@H]23)OCO4` condition met

Hi there! Is GI50 for `CC(C)(C)C(=O)O[C@H]1C=C2CCN3Cc4cc5c(cc4[C@H]([C@@H]1O)[C@@H]23)OCO5` below 20 µM, do you know? condition met

* * *

- System: SK-MEL-28
- PROTOCOL DESCRIPTION: Growth inhibition of pro-apoptotic stimuli-resistant human SK-MEL-28 cells after 72 hrs by MTT assay
- Format: functional
- CONDITION CONTEXT: SK-MEL-28, 72 h
Entries and their measured GI50 follow.

Record excerpt, results attached:
SMILES INPUT	TARGET UNDER TEST	READOUT LABEL	VAL
O=C1C=C2CCN3Cc4cc5c(cc4[C@H]([C@@H]1O)[C@@H]23)OCO5	SK-MEL-28	GI50	> 100 µM
O[C@@H]1[C@@H](O)[C@H](O)[C@@]2(O)CCN3Cc4cc5c(cc4[C@H]1[C@H]32)OCO5	SK-MEL-28	GI50	> 100 µM
O=C(O[C@H]1[C@H]2c3cc4c(cc3CN3CCC(=C[C@@H]1O)[C@H]23)OCO4)c1ccccc1	SK-MEL-28	GI50	4 µM
CC(=O)O[C@H]1[C@H]2c3cc4c(cc3C(=S)N3CCC(=C[C@@H]1OC(C)=O)[C@H]23)OCO4	SK-MEL-28	GI50	47 µM
O[C@H]1C=C2CCN3Cc4cc5c(cc4[C@H]([C@@H]1OCc1ccccc1)[C@@H]23)OCO5	SK-MEL-28	GI50	> 100 µM

Lab note: next compound to report on.
Provide the documented GI50 with SK-MEL-28 as the system for `CC(=O)Oc1cc2c3c(c1)c1cc4c(cc1c(=O)n3CC2)OCO4` > 100 µM

* * *

- Tested on: SK-MEL-28
- PROTOCOL DESCRIPTION: Growth inhibition of pro-apoptotic stimuli-resistant human SK-MEL-28 cells after 72 hrs by MTT assay
- Type: functional
- CONDITION CONTEXT: SK-MEL-28, 72 h
Entries annotated with measured GI50
Just the number please, in µM, no unit attached.

Examples with their reported GI50 follow.
SMILES INPUT	VAL
O[C@H]1[C@H]2c3cc4c(cc3CN3CCC(=C[C@@H]1O)[C@H]23)OCO4	4
CCCCCCCCCCCCCCCC(=O)O[C@H]1[C@H]2c3cc4c(cc3CN3CCC(=C[C@@H]1O[Si](C(C)C)(C(C)C)C(C)C)[C@H]23)OCO4	38
CCCCCCCCCCCCCCCCCC(=O)O[C@H]1[C@H]2c3cc4c(cc3CN3CCC(=C[C@@H]1O)[C@H]23)OCO4	34
CC(=O)O[C@H]1[C@H]2c3cc4c(cc3CN3CCC(=C[C@@H]1O[Si](C(C)C)(C(C)C)C(C)C)[C@H]23)OCO4	34
CC(C)[Si](O[C@H]1C=C2CCN3Cc4cc5c(cc4[C@H]([C@@H]1O)[C@@H]23)OCO5)(C(C)C)C(C)C	26

From here, focus on the item given below.
Name the recorded GI50 for `CC(=O)Oc1cc2ccn3c(=O)c4cc5c(cc4c(c1)c23)OCO5` . 21
